# Experiment summary: soluble on expression in E. coli; label from the status in PepcDB or PDB records
Metric name: soluble on expression in E. coli

// below: answered sequences
• MKSTGETLNIEEKVFAIADQFDHQGKIVQIKPFGNGNINDTFLVDLDGQTQTSFILQRINHQVFKNPAAVMGNMVRVTTHIKQKLQRQPLERPWLMPEVILTKNNQDHWDSGTGEFWRAISFIAGSESFDILTDPAQAKEVGTALGIFHQLLSDLSPSQLVDTLPGFHHTPIYLQQYQRALAQNPKLTGSLGPEINHCQRVIKTWLDQCGVLETAKAQGQLPLRLMHGDPKVNNILFDRQSGKAVSVIDLDTTKPGLIHYDLGDCLRSGCNLLGEETENWSAVEFDLDLCRAILEGYLPQCQHFLTAADYDYLCPAIVLISFELGLRFFTDYLNGDRYFKVKYPEHNLIRALVQFQLASHIQSQEDAIRRMIEDIRGLEHHHHHH = not soluble
• MSLRDISILLAEDESELRELLHEYLQLFFGRVYAATSGDQAYDIYKQKKPDIIITDISMPNLDGLEMISKIRESDKETKIIVMSAHSEQERLLLAIKLNLESYLIKPIKTEALKTILLDIVKHLREKSRRTYVTENIYWEHETNTLWGNSKEIKLRKMESMLLKLLFSRPNEIFSTKEIFDYLHETKNDKEFSVHAVTSLMKRLRAKLPNEVIHNIYGSGYKIIPIEGHHHHHH = soluble
• MQMNTQREQLIHIWLTSVLNSDEFKIQFLAGDASFRRYARVEYKNNTYMLMDAPPEKEDCVPFVHIDEFFDRHGVRVPHILAKDLVQGFLLLEDFGDVLLSTLLNAQTVNHYYLQAFAQLIHLQSIDGQDQFPAYTFEKLMAEMHLLTEWMLPSLDIQPSSAEQDIIQQTFELLANTALNQPQVIVHRDFHSRNLMKIQGEEELGVIDFQDAVIGADTYDLISITRDAYVQWGEDQVITWFEMFYDLLPDTSKHHRDFEQFKRDADFMAIQRHIKILGIFVRLFERDGKSSYLKDLPRVMWYLLQESRPYAELKPFVEFIQYQVMPKFEQKYGGYEVVKK = not soluble
• MTRAQPEPVQVVKQRRDAALRALVSGVPYITYLGIQFDRRGDELTAVLPFDEKLIGNPMLPAIHGGVTAAFLEVASIIELSWSVLWHEMEQGRLDPDQIEARLPRLPKTIDFTVDYLRSGLPRDAYARARVNRSGRRYASVHVEAWQDNRLRPFAQATGHFLMPARNDLEHHHHHH = soluble

From here, focus on the item given below.
Identify measured soluble on expression in E. coli corresponding to MSLSDQSQIIAGFTLWHLSLPVTARRDHGIGSVAGAVEVVVLRLQADSGAVGYGEASPWVVFTGSVEATYAALDRYLRPLVLGRAVGDHAAIMEDARAAVAHCTEAKAALDTALYDLRARIAGVPVWALLGGRCRDRIPLSCSIADPDFDKDLALMQRLQDDDVRIIKLKTGFKDHAFDMMRLERLRADFPAFDIRVDYNQGLHHDVALARVRDVATFKPTFIEQPVKAHLRGLMARIRDAVDVPLLADESIFGPEDMAEHPEIADGVSIKIMKSGGLTRAQTVARMAAARGLSAYGGDMFEAGLAHLAGAHMIAATPEITLGCEFYQATYFLCDDILAAPFPVADGHVLVPDTPGLGVDVDEDALARFAVAREGHHHHHH
soluble
